System: K-562 leukemia
Assay: NCI-60 one-dose screen, 48 h
Details: 10 µM unless noted
Protocol: Cells are grown in 96 well plates and exposed to the test compound for 48 hours. Compounds are tested at a single concentration, which is 10^-5 M for most compounds. The reported endpoint is percent growth (GI% or GIPRCNT), where numbers from 0 - 100% represent growth inhibition, and numbers from -100% - 0 represent cell death. For example, a value of 40 represents 60% growth inhibition. A value of 0 means no net growth occurred over the course of the experiment. […]
About 83,000 compounds went through this panel and 20% of them were active in at least one assay; those are over-represented in the sample as a whole. Activity calls are given as the source filed them. How the source made its calls: active means growth percent below 10; inactive means the rest.
Pick one and only one: 1 = active, 0 = inactive

Cc1nc2nc(N)nc(N)c2nc1C = 0
Nc1c(C(=O)Nc2ccccc2)sc2nc3c(cc12)CN(CCc1ccccc1)CC3 = 0
Cc1ccc(N)cc1F = 0
O=C(Nc1nc(-c2ccccc2)cc(-c2ccc(Cl)cc2)n1)c1ccncc1 = 0
O=C(Nc1cccc2c1C(=O)c1cccc(Nc3cccc4c3C(=O)c3cccc(NC(=O)c5ccccc5)c3C4=O)c1C2=O)c1ccccc1 = 0

input: How was `CCN(CC)CCCNc1cccc2c(SCc3ccccc3)ccnc12` classified in this test?
output: 1

input: Please do the same for `COc1cc(NC(N)=NCC(C)(C)COc2ccc(C(F)(F)F)cc2)cnc1C#N` as well.
output: 0

input: Thanks! And COC(=O)C12C3C(=O)N(c4ccc(OC)cc4)C(=O)C3C(c3cn(-c4ccccc4)nc3C)N1[C@H](c1cn(-c3ccccc3)nc1C)[C@@H]1C(=O)N(c3ccc(OC)cc3)C(=O)[C@@H]12 (stereo not given in full) ?
output: 0

input: Moving on to `CCCCCCCCCc1cc(CN2CCCCC2)c(O)c(CN2CCCCC2)c1`
output: 0

input: Same question for `CCN(C(=O)CN1CCN(c2cc3c(cc2F)c(=O)c(C(=O)O)cn3C2CC2)CC1)c1nc(-c2ccc(OC)cc2)cs1` please.
output: 0

input: Here is the next compound: `CC#Cc1nc2ccccc2c(=O)[nH]1`
output: 0

input: Now the same for COCCOC(=O)C1=C(C)NC(=S)NC1c1ccc2c(c1)OCO2 (stereo not given)
output: 0

input: Again, but for OC(c1cc(-c2ccccc2)nc2ccc(Cl)cc12)C1CCCCN1 (stereo not given)
output: 1

input: Continue with `CN(C)c1ccc(/C=C\C2=[N+](C)c3ccccc3C2(C)C)cc1`
output: 0

====

Tested on: 786-0 renal
Test: NCI-60 one-dose screen, 48 h
Conditions: 10 µM unless noted
The panel holds about 83,000 compounds, 20% with a hit somewhere; the sample as a whole holds those more often. Activity calls are given as the source filed them. Rule for the calls: active = growth percent below 10; inactive = the rest.
Just give me one of these, please: true (active), false (inactive)

Below are worked cases with known answers.
O=[N+]([O-])c1cccc(C2CC(c3ccccc3)=Nc3ccccc3S2)c1 (stereo unspecified) = false
CCCCCn1cnc2c(=S)nc[nH]c21 = false
COc1ccc(S(=O)(=O)NCCCNc2cc(-c3c(-c4cccc(OC)c4)nc4sccn34)ccn2)cc1 = false
CCOC(=S)SCc1ccc(Cl)cc1 = false
CC(=O)N1CC(Nc2ccc(OC(F)(F)F)cc2)=CC1=O = false
CC(=O)/C(=C/c1cccc(Cl)c1)C(=O)c1ccccc1 = false
C#Cc1nc2ccccc2c(=O)[nH]1 = true
CN(C)C(=O)c1cc2cnc(Nc3ccc(-c4csc5c(=O)cc(N6CCNCC6)oc45)cc3)nc2n1C1CCCC1 = true

input: Dear colleague, could you share the recorded outcome for `CCN(CC)Cc1cc(Nc2c3ccccc3nc3cc(Cl)ccc23)ccc1O` when you have a moment?
output: true

input: Please do the same for `CC[C@@H](C)OC(=O)c1nn(C(C)=O)c2ccccc12` as well.
output: false

input: Also need `COc1cccc(/C=C2/C(=O)N(Cc3ccco3)SC2=S)c1OC` , thanks.
output: false

input: # iterate: COc1cc(C2C(C(=O)c3cccs3)=C(O)C(=O)N2CCN2CCOCC2)cc(OC)c1OC (stereo unspecified)
output: false

input: Can you check `CCOC(=O)/C=C/C(=O)[C@H](CC(C)C)NC(=O)[C@H](Cc1ccccc1)NC(=O)OCc1ccccc1` next?
output: false

input: Please give the result for `O=C(COCc1c(-c2ccccc2)no[n+]1[O-])Nc1ccc(C(=O)/C=C/c2ccc3c(c2)OCO3)cc1` too.
output: false

input: Ok, now C=CC[N+]1(CCO)CCN=C1CCCCCCCCCCCCC (stereo unspecified)
output: true

input: Okay, and C=C1CCC2C3(C)COC(C)(C)OC3CCC2(C)C1C/C=C1/C(=O)OCC1OC(C)=O (stereo unspecified) ?
output: false

input: Another: O=C1OC2C(I)C3CC2C1C3c1ccccc1 (stereo unspecified)
output: false

input: Further, for `Cc1ccc(-c2nc(/C=N/Nc3cc(C)nc4ccc(Br)cc34)c(C)o2)cc1` ?
output: true

input: Proceed to Cc1nc2sc(C(=O)Nc3cccc4c3OCCO4)c(N)c2cc1C(C)O (stereo unspecified)
output: false

input: Can you handle `CC[n+]1ccc2c(c1)C(=O)c1nccc3c1c-2nc1ccccc13` next?
output: true

input: Now consider `OCCNCCNc1c2ccccc2nc2ccccc12` .
output: false

input: Another compound to check: CCCCCCCCCCCCCCCCCCNC(=O)[C@H]1CSC(c2ccc(F)c(OC)c2)N1 (stereo partly specified)
output: true

input: Okay, and `CC/C=C\C[C@H](O)C/C=C1/C(=O)C=C[C@@H]1C/C=C\CCCC(=O)NC` ?
output: true

input: What about CC(C)CC(CC1=CCC2CC1C2(C)C)C1=C(O)C(C)(C)C(=O)C(C)(C)C1=O (stereo unspecified) ?
output: true

input: Try `COc1ccc2c(c1)C(=O)/C(=C/c1cccc(OCC(=O)Nc3nc4c(s3)CCCC4)c1)O2` next.
output: false
